Reference source for all entries: ChEMBL document CHEMBL1201862

Test system: EKVX
Method: NCI tumour cell line growth inhibition, 48 h
Calls of active or inactive are those of the source. Cut-off read from the data, not from the text of the source: active = GI50 up to about 1.1 µM and inactive = higher.
Readout name: GI50

Entry `c1ccc2c(c1)N=C(NC1CCCCC1)CCN2` needs its GI50 filled in; supply it.
> 100 µM (inactive)

***
Return value of GI50 for input `CN(C)c1nnnn1-c1c(N)n(C)c(=O)n(C)c1=O` , no commentary.
> 100 µM (inactive)

Name the recorded GI50 of the compound listed here: `COc1cc(-c2nccc3cc(OC)c(OC)cc23)ccc1O`
35.6 µM (inactive)

Answer with the recorded GI50 for the compound listed here: C#CC(O)/C=C/C(O)CCCC(O)CC#CC(O)C#CCCCCC(O)/C=C/CCCCCC(=O)CCCCCCCCCCCCCC(O)C(O)C#CC(=O)O (stereo unspecified)
> 25 µM (inactive)

For the compound NC1NCCC(=O)N1CCc1c[nH]c2ccccc12 (stereo unspecified) , give its reported GI50.
28.1 µM (inactive)

Kindly indicate its recorded GI50. Item: CC1(C)OC2CC3COC(=O)C3CC2O1 (stereo unspecified)
> 100 µM (inactive)

---

System: NCI-H23
Method: NCI tumour cell line growth inhibition, 48 h
Activity calls are given as the source filed them. Cut-off read from the data, not from the text of the source: active = GI50 up to about 1.1 µM and inactive = higher.
Log the outcome using a class from active, inactive

State the result this test recorded for C=C1CC(O)C2C(=C)C(=O)OC2C2C(C)C(=O)CC12 (stereo not given) .
inactive

Assay outcome for COC1=C(C)C(=O)c2c(c(COC(N)=O)c3n2CC2C3N2C)C1=O (stereo not given) : what was it?
active

Given `CCOc1ccccc1/N=N/c1ccc2oc(=O)c(C(=O)Nc3cccc(C)c3)cc2c1` , state the outcome it received in this test.
inactive

What did this assay record as the result for `Cc1ccc(S(=O)(=O)N/C(=N\O)Nc2ccc(Cl)c(Cl)c2)cc1` ?
inactive

Turning now to a further record.
Entry `COc1ccc(-n2sc3ncc([N+](=O)[O-])cc3c2=O)cc1` : call = ?
inactive

---

System: Hs-578T
Method: NCI tumour cell line growth inhibition, 48 h
Activity calls are given as the source filed them. Rule as the data show it: active = GI50 up to about 1.1 µM and inactive = higher.
Let's look at some compounds and their measured GI50.

Give the value of GI50 reported for the following: `CCCCCC/C=C\CCCCCCCCCC1=C(CN2CCN(C)CC2)C(=O)C=C(OC)C1=O`
6.03 µM (inactive)

Return reported GI50. Input compound: `CC(=O)OCCCOCn1c(Cc2ccccc2)c(C)c(=O)[nH]c1=O`
> 100 µM (inactive)

Identify measured GI50 corresponding to NNC(N)Nc1ccccc1 (stereo not drawn)
> 100 µM (inactive)

Read off the recorded GI50 for `Cc1ccc(Nc2nnc3n2S(=O)(=O)c2cc(C)c(Cl)cc2S3)cc1`
2.89 µM (inactive)

Answer with the recorded GI50 of C[C@@H]1CCC2[C@@H](C)C(=O)O[C@@H]3C4C[C@@H]1[C@@]23OO[C@@]4(C)O (stereo partly drawn) only.
> 100 µM (inactive)

New cases:
Indicate the recorded GI50 value for this compound: `CCOC(=O)c1ccc(Nc2nc3cc(C(F)(F)F)ccc3nc2C(=O)OCC)cc1`
> 100 µM (inactive)

# return recorded GI50 for entry `Cc1cc(O)nc(/N=C(\N)Nc2ccc(Cl)cc2)n1`
> 100 µM (inactive)

Retrieve GI50 measured for O=C1CC2OCC=C3CN4CCC56c7ccccc7N1C5C2C3CC46O (stereo not drawn) and print it.
> 100 µM (inactive)
